Target: T1, human Trop2 on cells (human, UniProt P09758 27-323)
T1 construct: whole, on cells; also called hTrop2; 293T-human Trop2 cells
T1 sequence (looked up): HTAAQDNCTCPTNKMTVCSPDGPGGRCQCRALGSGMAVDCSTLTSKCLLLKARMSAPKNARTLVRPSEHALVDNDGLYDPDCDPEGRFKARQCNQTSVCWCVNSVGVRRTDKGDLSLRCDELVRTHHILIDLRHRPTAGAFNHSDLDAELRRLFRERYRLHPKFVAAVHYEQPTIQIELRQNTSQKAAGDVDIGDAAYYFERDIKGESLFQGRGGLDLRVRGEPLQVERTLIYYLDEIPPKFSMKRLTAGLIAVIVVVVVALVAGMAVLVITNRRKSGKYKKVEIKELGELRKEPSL
Assay: flow cytometry on 293T-human Trop2 cells
experimental.endpoint: EC50 (nM)
Give bare numbers, in nM.

Reference set (3 entries):
binder	reported.result
PR001152 (antibody, human IgG1, kappa, V domains shown, fully human IgG1/kappa; also called antibody No. (15)) VH: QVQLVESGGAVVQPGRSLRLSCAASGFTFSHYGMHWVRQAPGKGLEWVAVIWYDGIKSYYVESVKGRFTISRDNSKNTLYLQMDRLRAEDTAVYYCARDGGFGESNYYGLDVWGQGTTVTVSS VL: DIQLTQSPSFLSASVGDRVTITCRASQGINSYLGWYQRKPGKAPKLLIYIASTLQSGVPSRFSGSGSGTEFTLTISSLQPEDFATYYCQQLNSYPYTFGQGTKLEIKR	1.93
PR001128 (antibody, human IgG1, kappa, V domains shown, fully human IgG1/kappa; also called antibody No. (1)) VH: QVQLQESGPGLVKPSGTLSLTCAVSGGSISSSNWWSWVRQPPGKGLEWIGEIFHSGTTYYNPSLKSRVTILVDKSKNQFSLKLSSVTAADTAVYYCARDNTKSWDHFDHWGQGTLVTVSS VL: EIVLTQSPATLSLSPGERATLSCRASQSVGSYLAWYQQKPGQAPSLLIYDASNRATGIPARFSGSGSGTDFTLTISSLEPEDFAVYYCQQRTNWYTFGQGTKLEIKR	0.466
PR001130 (antibody, human IgG1, kappa, V domains shown, fully human IgG1/kappa; also called antibody No. (2)) VH: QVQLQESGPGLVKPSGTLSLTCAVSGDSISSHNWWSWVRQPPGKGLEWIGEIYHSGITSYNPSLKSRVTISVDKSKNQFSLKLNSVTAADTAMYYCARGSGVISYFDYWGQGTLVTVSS VL: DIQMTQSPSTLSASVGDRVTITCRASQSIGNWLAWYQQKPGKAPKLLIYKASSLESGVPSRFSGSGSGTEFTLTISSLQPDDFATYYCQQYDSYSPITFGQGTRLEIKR	2.06

Notebook: PR001132 (antibody, human IgG1, kappa, V domains shown, fully human IgG1/kappa; also called antibody No. (4)) VH: QVELVESGGGVVQPGRSLRLSCGASGFTFSSYNMYWVRQAPGKGLEWVAGIWDDGNNKYYANSVKGRFTISRDNSKNTLYLQMNSLRTEDTALYYCAKDGWGSYGEYFQHWGQGTLVTVSS VL: DIQMTQSPSSLSASVGERVTITCRASQNINSYLSWYQQKPGKAPKLLIYAASSLQNGVPSRFSGSGSGTDFTLTISSLQPEDFATYYCQQSFSTPPITFGQGTRLEIKR , EC50 read as 0.441
